experiment: Selectivity ratio of IC50 for human Jurkat cells to IC50 for human IMR90 cells
Format: ADME, cell-based
statedConditions: Jurkat cells versus IMR90 cells, read-out: Ratio IC50
Property: selectivity ratio; scope: individual compounds
Number, no unit, nothing else.

CC1=C(CC(=O)Oc2ccc(OC(=O)CCCO[N+](=O)[O-])c(C(=O)Oc3ccc(-c4cc(=S)ss4)cc3)c2)c2cc(F)ccc2/C1=C\c1ccc([S+](C)[O-])cc1 (configuration not stated)
70

Pending compound:
Task item: So what does the record say about selectivity ratio for "C[C@H](C(=O)Oc1ccc(-c2cc(=S)ss2)cc1)c1ccc2cc(OC(=O)CCCO[N+](=O)[O-])ccc2c1" ?
Reply: 70
